molecular target: human D2L receptor (Homo sapiens); experiment: Dopamine D2L receptor binding assay ([3H]-spiperone); settings: 10 nM test drug; [3H]-spiperone 0.5 nM; human D2L receptor-expressing CHO cell membrane; read-out: BINDING INHIBITION RATE (%) D2L 10 nM
Sequence (P14416 whole entry): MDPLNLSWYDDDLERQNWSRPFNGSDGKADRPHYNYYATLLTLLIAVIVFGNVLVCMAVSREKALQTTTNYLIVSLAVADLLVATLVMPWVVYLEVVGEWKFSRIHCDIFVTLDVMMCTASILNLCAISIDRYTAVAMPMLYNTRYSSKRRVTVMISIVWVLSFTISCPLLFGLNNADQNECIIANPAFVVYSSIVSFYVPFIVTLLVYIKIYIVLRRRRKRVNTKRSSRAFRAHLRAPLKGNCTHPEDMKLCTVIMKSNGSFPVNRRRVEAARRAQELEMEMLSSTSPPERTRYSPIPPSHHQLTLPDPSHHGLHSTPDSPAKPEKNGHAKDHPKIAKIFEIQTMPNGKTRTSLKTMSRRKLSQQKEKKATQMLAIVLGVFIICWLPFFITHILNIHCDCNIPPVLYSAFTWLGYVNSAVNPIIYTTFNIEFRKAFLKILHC
Observable: inhibition at 0.01 µM (%)
Reply numerically in %, unit not repeated.

# lookup: inhibition at 0.01 µM of O=C(c1ccc(F)cc1)C1CCN(C[C@H]2CCCN(C(=O)c3cc4ccc(Cl)cc4[nH]3)C2)CC1 [Example 45] 82

# lookup: inhibition at 0.01 µM of C[C@H]1CC[C@@H](CCN2CCC(C(=O)c3ccc(F)cc3)CC2)N1C(=O)c1cc2ccc(SC(F)(F)F)cc2[nH]1 [Example 168] 81

# lookup: inhibition at 0.01 µM of Cc1ccc2cc(C(=O)N3CCOCCC3CCN3CCC(c4c[nH]c5ccccc45)CC3)[nH]c2c1 (stereo not drawn) [Example 43] 74

# lookup: inhibition at 0.01 µM of Cc1ccc2cc(C(=O)N3CCC[C@H]3CCN3CCC(N4CCc5cc(F)ccc54)CC3)[nH]c2c1 [Example 3] 80

# lookup: inhibition at 0.01 µM of Cc1ccc2cc(C(=O)N3CCC[C@H]3CCN3CCC(c4noc5cc(F)ccc45)CC3)[nH]c2c1 [Example 6] 91

# lookup: inhibition at 0.01 µM of O=C(c1cccc(-c2ccccc2)c1)N1CCC[C@@H](CCN2CCN(c3nsc4ccccc34)CC2)C1 [Example 57] 69

# lookup: inhibition at 0.01 µM of Cc1ccc2cc(C(=O)N3CCC[C@H]3CCN3CCN(c4nccc5ccccc45)CC3)[nH]c2c1 [Example 11] 69

# lookup: inhibition at 0.01 µM of O=C(c1ccc(F)cc1)C1CCN(CC[C@@H]2CCCN2C(=O)c2cc(-c3ccccc3)n[nH]2)CC1 [Example 51] 81

# lookup: inhibition at 0.01 µM of COc1ccc2[nH]c(C(=O)N3C[C@@](C)(O)C[C@H]3CCN3CCC(c4c[nH]c5ccccc45)CC3)cc2c1 [Example 38] 72

# lookup: inhibition at 0.01 µM of O=C(/C=C/c1ccc2c(c1)OCO2)N1CCC[C@H](CN2CCC(c3coc4ccccc34)CC2)C1 [Example 29] 80

# lookup: inhibition at 0.01 µM of O=C(c1cc2cc(F)ccc2[nH]1)N1CCOC[C@H]1CCN1CCC(c2c[nH]c3ccccc23)CC1 [Example 7] 85

# lookup: inhibition at 0.01 µM of Cc1ccc2cc(C(=O)N3CCC[C@H]3CCN3CCC(C(=O)c4ccc(F)cc4)CC3)[nH]c2c1 [Example 1] 91

# lookup: inhibition at 0.01 µM of Cc1ccc2cc(C(=O)N3CCC[C@H]3CCN3CCC(N4CCCc5ccccc54)CC3)[nH]c2c1 [Example 12] 59

# lookup: inhibition at 0.01 µM of CC(C)c1ccc2cc(C(=O)N3CCC[C@H]3CCN3CCC(C(=O)c4ccc(F)cc4)CC3)[nH]c2c1 [Example 161] 49

# lookup: inhibition at 0.01 µM of O=C(/C=C/c1ccc2c(c1)OCO2)N1CCCC[C@H]1CCN1CCN(c2cccc3ccccc23)CC1 [Example 9] 32

---

molecular target: human 5-HT2A receptor (Homo sapiens); construct: expressed in transfected cells; host or cells: CHO cells (membrane preparation); experiment: Serotonin 5-HT2A receptor binding assay ([3H]-ketanserin); conditions: 10 nM test drug; [3H]-ketanserin 1 nM; human 5-HT2A receptor-expressing CHO cell membrane; read-out: BINDING INHIBITION RATE (%) 5HT2A 10 nM
Observable: inhibition at 0.01 µM (%)
Reply numerically in %, unit not repeated.

# lookup: inhibition at 0.01 µM of `Cc1ccc2[nH]c(C(=O)N3CCC[C@H]3CCN3CCC(c4coc5ccccc45)CC3)cc2c1` 92

# lookup: inhibition at 0.01 µM of `O=C(/C=C/c1ccc2c(c1)OCO2)N1CCC[C@H](CN2CCC(c3noc4cc(F)ccc34)CC2)C1` 99

# lookup: inhibition at 0.01 µM of `COc1ccc2[nH]c(C(=O)N3CCCC[C@H]3CCN3CCC(c4coc5ccccc45)CC3)cc2c1` 98

# lookup: inhibition at 0.01 µM of `COc1ccc2cc(C(=O)N3CCOC[C@H]3CCN3CCC(c4noc5cc(F)ccc45)CC3)[nH]c2c1` 94

# lookup: inhibition at 0.01 µM of `O=C(c1cc2cc(F)ccc2[nH]1)N1CCOC[C@H]1CCN1CCC(c2c[nH]c3ccccc23)CC1` 100

# lookup: inhibition at 0.01 µM of `O=C(/C=C/c1ccc2c(c1)OCO2)N1CCC[C@@H](CCN2CCN(c3nsc4ccccc34)CC2)C1` 96

# lookup: inhibition at 0.01 µM of `O=C(/C=C/c1ccc2c(c1)OCO2)N1CCC[C@H](CN2CCC(c3coc4ccccc34)CC2)C1` 100

# lookup: inhibition at 0.01 µM of `COc1ccc2cc(C(=O)N3C[C@H](O)C[C@H]3CCN3CCC(c4c[nH]c5ccccc45)CC3)[nH]c2c1` 89

# lookup: inhibition at 0.01 µM of `COc1ccc2cc(C(=O)N3CC[C@H]3CCN3CCC(c4c[nH]c5ccccc45)CC3)[nH]c2c1` 95

# lookup: inhibition at 0.01 µM of `CCNC(=O)O[C@@H]1C[C@@H](CCN2CCC(c3c[nH]c4ccccc34)CC2)N(C(=O)c2cc3cc(OC)ccc3[nH]2)C1` 87
